Source of measurements: patent US20130230533A1

Reported values of T½ for individual entries
- target_entity: T1, Monomeric monkey CD48-mmH (monkey)
- T1 construct: Soluble monkey CD48 with a myc-myc-hexa-histidine C-terminal tag; the whole entry is the construct; also called mfCD48-mmH
- T1 chain: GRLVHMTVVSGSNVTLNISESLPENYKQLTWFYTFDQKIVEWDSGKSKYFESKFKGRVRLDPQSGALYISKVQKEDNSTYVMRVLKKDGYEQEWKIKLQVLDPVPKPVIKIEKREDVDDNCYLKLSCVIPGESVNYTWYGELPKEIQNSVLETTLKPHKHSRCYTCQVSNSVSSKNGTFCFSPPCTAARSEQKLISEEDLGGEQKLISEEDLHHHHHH
- assay_text: SPR (Biacore), antibody captured by anti-Fc, CD48 in solution, 37 C
Please don't drop the unit; write it after the number.

The following binders have reported results that may help.
{"binder": "H4H1772P (antibody, human IgG4, V domains shown, Human IgG4 Fc (H4H)) VH: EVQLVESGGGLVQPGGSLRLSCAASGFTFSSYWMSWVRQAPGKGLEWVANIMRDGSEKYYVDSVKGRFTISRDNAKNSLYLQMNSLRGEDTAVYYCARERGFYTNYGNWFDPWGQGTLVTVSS VL: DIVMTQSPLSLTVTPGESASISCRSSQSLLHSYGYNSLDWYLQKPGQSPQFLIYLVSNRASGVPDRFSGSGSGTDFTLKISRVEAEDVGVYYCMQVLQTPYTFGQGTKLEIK", "T½": "8 min"}
{"binder": "H4H1781P (antibody, human IgG4, V domains shown, Human IgG4 Fc (H4H)) VH: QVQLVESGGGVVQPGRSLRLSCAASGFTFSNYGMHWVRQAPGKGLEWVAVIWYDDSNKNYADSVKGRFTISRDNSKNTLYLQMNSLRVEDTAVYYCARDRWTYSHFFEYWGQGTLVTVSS VL: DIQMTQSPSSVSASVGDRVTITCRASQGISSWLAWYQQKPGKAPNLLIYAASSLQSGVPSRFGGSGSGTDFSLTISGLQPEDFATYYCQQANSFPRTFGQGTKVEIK", "T½": "38 min"}
{"binder": "H4H1770P (antibody, human IgG4, V domains shown, Human IgG4 Fc (H4H)) VH: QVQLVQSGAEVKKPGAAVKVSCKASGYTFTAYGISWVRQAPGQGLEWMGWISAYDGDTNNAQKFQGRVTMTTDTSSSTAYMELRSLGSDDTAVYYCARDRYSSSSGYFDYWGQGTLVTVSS VL: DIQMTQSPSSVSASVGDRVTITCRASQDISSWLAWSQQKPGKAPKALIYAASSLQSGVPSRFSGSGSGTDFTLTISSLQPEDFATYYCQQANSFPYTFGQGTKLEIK", "T½": "66 min"}
{"binder": "H4H1774P (antibody, human IgG4, V domains shown, Human IgG4 Fc (H4H)) VH: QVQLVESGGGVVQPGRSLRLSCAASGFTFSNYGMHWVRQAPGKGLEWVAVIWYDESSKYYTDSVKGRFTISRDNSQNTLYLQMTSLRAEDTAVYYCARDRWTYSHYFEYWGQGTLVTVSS VL: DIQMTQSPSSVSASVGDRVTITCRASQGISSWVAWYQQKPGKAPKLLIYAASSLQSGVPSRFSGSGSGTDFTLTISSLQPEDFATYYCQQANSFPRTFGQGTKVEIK", "T½": "43 min"}

Attention now turns to another entry.
### Prompt Given H4H1778P (antibody, human IgG4, V domains shown, Human IgG4 Fc (H4H)) VH: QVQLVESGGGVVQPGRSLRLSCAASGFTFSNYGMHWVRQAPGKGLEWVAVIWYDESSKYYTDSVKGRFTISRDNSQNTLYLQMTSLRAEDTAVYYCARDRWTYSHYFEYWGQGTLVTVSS VL: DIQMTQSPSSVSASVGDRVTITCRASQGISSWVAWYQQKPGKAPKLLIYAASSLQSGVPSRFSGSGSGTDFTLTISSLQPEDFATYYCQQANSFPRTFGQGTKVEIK , respond with its T½.
### Response 46 min
